Measured values drawn from paper PMC11784839 for this set.

Molecular target: tau (Homo sapiens, UniProt P10636)
Sequence (P10636 623-695 limits assumed): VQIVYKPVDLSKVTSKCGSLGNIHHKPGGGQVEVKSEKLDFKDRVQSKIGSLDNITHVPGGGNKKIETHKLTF
Assay: MCE Phenols Library screening, tau biosensor cell seeding assay (AvZ)
Type: cell-based
Conditions: Z score, replicate 2
Give Z Repl 2 for every item shown.
Form field (numeric): enter value without unit.

Notebook: pull reported Z Repl 2 for tau (Homo sapiens, UniProt P10636), entry COc1cc(-c2cc(=O)c3c(O)c(OC)c(O)cc3o2)cc(O)c1OC
-0.242

API: value(readout= Z Repl 2, system= tau (Homo sapiens, UniProt P10636), query= COc1cc2oc(-c3ccccc3)cc(=O)c2c(O)c1OC )
0.208

Checklist item: Z Repl 2 tested on tau (Homo sapiens, UniProt P10636), entry OC[C@H]1O[C@@H](Oc2cc3c(O)cc(O)cc3[o+]c2-c2ccc(O)c(O)c2)[C@H](O)[C@@H](O)[C@H]1O.[Cl-] [Cyanidin-3-O-galactoside (chloride)] , value?
-0.88

Missing value: Z Repl 2, tau (Homo sapiens, UniProt P10636), entry COc1cc2c(=O)c3c(O)c([C@@H]4O[C@H](CO[C@@H]5OC[C@](O)(CO)[C@H]5O)[C@@H](O)[C@H](O)[C@H]4O)c(O)cc3oc2cc1O . Fill in?
0.604
